test_protocol: Toxicity against new Zealand rabbit blood assessed as hemolysis after 60 mins
Type: tissue-based, Oryctolagus cuniculus
details: read-out: HD50

compound_structure_string	relation_symbol	HC50 at 1 h [µM]
COC(=O)[C@@H](Cc1c[nH]c2ccccc12)NC(=O)[C@]12CC[C@](C)(C(=O)OC)C[C@H]1C1=CC[C@@H]3[C@@]4(C)C[C@H](O)[C@H](O[C@@H]5OC[C@@H](O[C@@H]6O[C@H](CO)[C@@H](O)[C@H](O)[C@H]6O)[C@H](O)[C@H]5O)[C@@](C)(CO)[C@@H]4CC[C@@]3(C)[C@]1(C)CC2	>	243
CNC(=O)[C@]12CC[C@](C)(C(=O)OC)C[C@H]1C1=CC[C@@H]3[C@@]4(C)C[C@H](O)[C@H](O[C@@H]5OC[C@@H](O[C@@H]6O[C@H](CO)[C@@H](O)[C@H](O)[C@H]6O)[C@H](O)[C@H]5O)[C@@](C)(CO)[C@@H]4CC[C@@]3(C)[C@]1(C)CC2	=	276
COC(=O)[C@@]1(C)CC[C@]2(C(=O)NCc3ccc(OC)c(OC)c3)CC[C@]3(C)C(=CC[C@@H]4[C@@]5(C)C[C@H](O)[C@H](O[C@@H]6OC[C@@H](O[C@@H]7O[C@H](CO)[C@@H](O)[C@H](O)[C@H]7O)[C@H](O)[C@H]6O)[C@@](C)(CO)[C@@H]5CC[C@]43C)[C@@H]2C1	=	215
COC(=O)[C@@]1(C)CC[C@]2(C(=O)NCc3ccc(Cl)cc3)CC[C@]3(C)C(=CC[C@@H]4[C@@]5(C)C[C@H](O)[C@H](O[C@@H]6OC[C@@H](O[C@@H]7O[C@H](CO)[C@@H](O)[C@H](O)[C@H]7O)[C@H](O)[C@H]6O)[C@@](C)(CO)[C@@H]5CC[C@]43C)[C@@H]2C1	<	2.6
COC(=O)[C@@]1(C)CC[C@]2(C(=O)O)CC[C@]3(C)C(=CC[C@@H]4[C@@]5(C)C[C@H](O)[C@H](O[C@@H]6OC[C@@H](O[C@@H]7O[C@H](CO)[C@@H](O)[C@H](O)[C@H]7O)[C@H](O)[C@H]6O)[C@@](C)(CO)[C@@H]5CC[C@]43C)[C@@H]2C1	=	186
CCCNC(=O)[C@]12CC[C@](C)(C(=O)OC)C[C@H]1C1=CC[C@@H]3[C@@]4(C)C[C@H](O)[C@H](O[C@@H]5OC[C@@H](O[C@@H]6O[C@H](CO)[C@@H](O)[C@H](O)[C@H]6O)[C@H](O)[C@H]5O)[C@@](C)(CO)[C@@H]4CC[C@@]3(C)[C@]1(C)CC2	=	191
COC(=O)[C@H](NC(=O)[C@]12CC[C@](C)(C(=O)OC)C[C@H]1C1=CC[C@@H]3[C@@]4(C)C[C@H](O)[C@H](O[C@@H]5OC[C@@H](O[C@@H]6O[C@H](CO)[C@@H](O)[C@H](O)[C@H]6O)[C@H](O)[C@H]5O)[C@@](C)(CO)[C@@H]4CC[C@@]3(C)[C@]1(C)CC2)C(C)C	>	266

Where do the numbers come from? From ChEMBL document CHEMBL1138252.
